system: SW-620 colon; assay: NCI-60 one-dose screen, 48 h; settings: 10 µM unless noted
This is part of a sample that, as a whole, favours compounds with a hit. Of some 83,000 tested, about 20% had one in any assay. Active and inactive are the calls of the source. How the source made its calls: active means growth percent below 10; inactive means the rest.
Select the correct class. Options are active, inactive and nothing else.

Worked set:
Molecular String	Assigned Label
Cc1c(C(C)(C)O)cn2ncnc(Oc3ccc(NC(=O)Nc4ccc(Cl)c(C(F)(F)F)c4)c(F)c3)c12	inactive
Cc1cccc(NC(=O)Cn2cc(CN3CCN(c4ccnc5cc(Cl)ccc45)CC3)nn2)c1	inactive
Nc1cc(-c2ccc(Cl)cc2)nn1-c1nnc(/C=C/c2ccco2)c(=O)[nH]1	inactive
Cn1cc(-c2nonc2-c2c[nH]c3ccccc23)c2cc(Br)ccc21	inactive
CN(C)CCC(=O)C1CC1	inactive
C/C(Cc1ccc(Cl)cc1)=C(\c1ccc(OCCN2CCCCCC2)cc1)c1ccc(OC(=O)c2ccccc2)cc1	inactive

Inquiry: Any idea what this test logged for COC(=O)[C@@]12CC=C(C)[C@]3(C[C@H](c4ccoc4)OC3=O)[C@H]1C=C[C@@H](O)[C@@]2(O)C(=O)OC ?
Reply text: inactive

Inquiry: Can you look up the reported call for Cc1ccc(NC(=O)c2cc3ccccc3cc2O)c(C)c1 for me?
Reply text: inactive
